Numbers sourced from patent US20100298402A1.

# Tested on: pSTAT3 in HEPG2 (liver cancer) cells induced by IL-6
# protocol_text: Inhibition of pSTAT3 (IL-6 induced phosphorylation of STAT3, Phospho-STAT3 (Tyr705) Sandwich ELISA)
# Type: cell-based
# test_context: Homo sapiens, 4 hours compound, then IL-6 (10 ng/mL) 30 minutes
In this section we review reported inhibition at 10 µM values for a set of compounds.
Number in %, nothing else.

Before answering, review these 2 worked examples.
1. COC(=O)/C(=C/c1ccc(OCC(O)CNCc2ccc(OC)cc2OC)cc1)c1ccc(C)cc1 (stereo not shown) [Example 37]    42
2. COc1ccc(CNCC(O)COc2ccc(/C(=C\c3ccc(F)c(F)c3)C(N)=O)cc2)c(OC)c1 (stereo not shown) [Example 64]    32.2

Ask: Could you share which inhibition at 10 µM value was measured for COC(=O)/C(=C/c1ccc(C)s1)c1ccc(OCC(O)CNCCOc2ccccc2OC)cc1 (stereo not shown) [Example 57] ?
Result: 66.5

Ask: inhibition at 10 µM lookup needed for COC(=O)/C(=C/c1ccc(OCC(O)CNCc2ccc(OC)cc2OC)cc1)c1cccs1 (stereo not shown) [Example 40] , thanks.
Result: 71
